- System: OVCAR-4
- PROTOCOL DETAILS: NCI tumour cell line growth inhibition, 48 h
The source made the active and inactive calls. Cut-off read from the data, not from the text of the source: active = GI50 up to about 1.1 µM and inactive = higher.

| COMPOUND | GI50 |
| --- | --- |
| CCC1C(=O)OCc2c1cc1n(c2=O)Cc2ccccc2-1 (stereo not given) | > 100 µM (inactive) |
| C=CCC1(C#N)C(=S)NC2=C(C(=O)CC(C)(C)C2)C1c1ccccc1 (stereo not given) | 31 µM (inactive) |
| COC(=O)/C=C(\CC(=O)OC)n1nnnc1[C@@H]1C[C@H](COC(c2ccccc2)(c2ccccc2)c2ccccc2)[C@H]2OC(C)(C)O[C@H]21 | > 100 µM (inactive) |
| Cc1cc(NS(=O)(=O)c2ccc(NC(NC(=O)C(C(F)(F)F)C(F)(F)F)(C(F)(F)F)C(F)(F)F)cc2)no1 | > 100 µM (inactive) |
| COc1cc2c3c(c1OC)-c1cc4c(cc1CC3(C#N)N(C(=O)c1ccccc1)CC2)OCO4 (stereo not given) | 15.3 µM (inactive) |
| O=C(O)c1c(Cl)c(Cl)c(Cl)c(Cl)c1C(=O)Nc1ccc2cn[nH]c2c1 | > 100 µM (inactive) |
| CCN(CC)CCNC(=O)c1cc2cc(NC(=O)c3cc4cc(NC(=O)c5cc6cc([N+](=O)[O-])ccc6[nH]5)ccc4[nH]3)ccc2[nH]1 | > 100 µM (inactive) |
| S=C1CSc2c(ccc3ccccc23)N1 | > 100 µM (inactive) |
| CC1(C)N(OC2CCCCO2)C(c2ccccc2)C(c2ccccc2)=[N+]1[O-] (stereo not given) | > 100 µM (inactive) |
| CC(C)(C)N/N=C(\C(=O)Nc1nnc(S)[nH]1)C1C(=O)Nc2ccccc2[S+]1[O-] (stereo not given) | > 100 µM (inactive) |
| NC(=O)NNC(=O)CCn1[nH]c(=O)c(Cl)c(Cl)c1=O | > 100 µM (inactive) |
| CN1CCN(C2=CC(=O)c3c(O)ccc(O)c3C2=O)CC1 | 2.02 µM (inactive) |
| CC1(c2cccc(C3CCC4(C=CC3=O)OCCO4)c2)OCCO1 (stereo not given) | 7.28 µM (inactive) |
| COC(=O)C(Cc1cc(OC)c(OC)c(OC)c1)(NC(=O)c1ccccc1)P(=O)(OC)OC (stereo not given) | > 100 µM (inactive) |
| ClCCNCCNCCCl.ClCCNCCNCCCl.[O-][Cl+3]([O-])([O-])O | 22.3 µM (inactive) |
| CSc1cc(Cl)c(C)cc1S(=O)(=O)NC(=O)NNc1cccc(C(F)(F)F)n1 | > 100 µM (inactive) |
| COC(=O)C(Cc1ccccc1)NC(=O)C(CCCNC(=N)N)NC(=O)OCc1ccccc1 (stereo not given) | > 100 µM (inactive) |
| O=c1[nH]c(=O)n(COCc2ccccc2)c2ccsc12 | > 100 µM (inactive) |
| COc1ccc2c(c1)CN1CCc3c(cc(OC)c(OC)c3OC)C1C2 (stereo not given) | > 100 µM (inactive) |
| O=[N+]([O-])c1ccc(C2N3CCCCC3[C@H]3CCCCN23)cc1 (stereo not given in full) | > 100 µM (inactive) |
